Reported values of viability, T/C for individual entries
- Tested on: 883617-216-R-J1-PDC complex spheroids, growth, % test/control;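 further: exposure lasted 7 days after dosing on day 3 of spheroid growth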
- assaySummary: Anticancer human tumor 883617-216-R-J1-PDC patient-derived bladder carcinoma cell line growth inhibition [AhR]
- experimentalContext: second compound 1 µM; first compound 0.3 µM; stronger effect = lower value
# number only, unit % dropped from output

# compound, system, u, viability, T/C
measured = [
    ("Nc1ncn(C2CC(O)C(CO)S2)c(=O)n1 (configuration not stated) + CC(CO)NC(=O)c1cc(-c2ccc(Cl)cc2)nn(-c2cnn(C)c2)c1=O", "883617-216-R-J1-PDC complex spheroids, growth, % test/control", "%", 89.8),
]

Query :: If you can, please state the reported viability, T/C value of CC(C)CC(NC(=O)C(Cc1ccccc1)NC(=O)c1cnccn1)B(O)O (configuration not stated) + CC(CO)NC(=O)c1cc(-c2ccc(Cl)cc2)nn(-c2cnn(C)c2)c1=O .
Result :: 3.98

Query :: If you can, please state the reported viability, T/C value of Nc1ncn(C2CC(O)C(CO)S2)c(=O)n1 (configuration not stated) + Cc1ccccc1N=Nc1ccc(NC(=O)c2ccnn2C)c(C)c1 .
Result :: 80.7

Query :: If you can, please state the reported viability, T/C value of CCN(c1cc(-c2ccc(CN3CCOCC3)cc2)cc(C(=O)NCc2c(C)cc(C)[nH]c2=O)c1C)C1CCOCC1 + Cc1cncc(-c2nc(NCCc3c[nH]c4ccccc34)c3ncn(C(C)C)c3n2)c1 .
Result :: 105

Query :: If you can, please state the reported viability, T/C value of CCN(c1cc(-c2ccc(CN3CCOCC3)cc2)cc(C(=O)NCc2c(C)cc(C)[nH]c2=O)c1C)C1CCOCC1 + Cc1ccccc1N=Nc1ccc(NC(=O)c2ccnn2C)c(C)c1 .
Result :: 78.3

Query :: If you can, please state the reported viability, T/C value of O=C(C=Cn1cnc(-c2cc(C(F)(F)F)cc(C(F)(F)F)c2)n1)NNc1cnccn1 + CC(CO)NC(=O)c1cc(-c2ccc(Cl)cc2)nn(-c2cnn(C)c2)c1=O .
Result :: 37.2

Query :: If you can, please state the reported viability, T/C value of CC(C)CC(NC(=O)C(Cc1ccccc1)NC(=O)c1cnccn1)B(O)O (configuration not stated) + Cc1ccccc1N=Nc1ccc(NC(=O)c2ccnn2C)c(C)c1 .
Result :: 0.1
